Cited source: patent US20240116985A1

Catalogue of Solubility readings, one per entry.
# MEASUREMENT_DESCRIPTION: Solubility in PBS
# Assay type: physicochemical
# PARTICULARS: Solubility (uM)
Entry rule: numbers only, all in µM.

For record CC(=O)N1CCC[C@]12CC=CCCCC1(CCCC=CCCCOC(=O)N3CC[C@@](C(=O)N[C@@H](Cc4ccccc4Cl)C(=O)N[C@@H](Cc4csc5ccccc45)C(=O)N[C@@H](CCC(N)=O)C(N)=O)(C3)NC(=O)[C@H]([C@@H](C)O)NC(=O)[C@H](Cc3ccccc3)NC(=O)[C@H](C)NC(=O)[C@H](C)NC(=O)[C@H](CC(=O)O)NC(=O)[C@H](CC(=O)O)NC1=O)NC(=O)[C@H](Cc1ccccc1)NC(=O)[C@H](CC(=O)O)NC2=O (stereo partly drawn) the listed Solubility is 43

Sample CCNC(=O)C[C@@H]1NC(=O)C2(CCCC=CCCCCCC[C@@](C)(C(=O)N[C@@H](Cc3ccccc3)C(=O)N[C@@H](Cc3csc4ccccc34)C(=O)N[C@@H](CCC(N)=O)C(N)=O)NC(=O)[C@H](C(C)C)NC(=O)[C@H](Cc3ccccc3)NC(=O)[C@H](C)NC(=O)[C@H](C)NC(=O)[C@H](CC(=O)O)NC1=O)CCCC=CC[C@]1(CCCN1C(C)=O)C(=O)N[C@@H](CC(=O)O)C(=O)N[C@@H](C)C(=O)N2 (stereo partly drawn) ; Solubility observed: 23

The compound COCCOCCOCCOCCOCCOCCOCCOCCC(=O)NCCCC[C@H](NC(=O)[C@H](CCC(N)=O)NC(=O)[C@H](Cc1csc2ccccc12)NC(=O)[C@H](Cc1ccsc1)NC(=O)[C@]12CCN(C1)C(=O)OCCCC=CCCCC1(CCCC=CC[C@]3(CCCN3C(C)=O)C(=O)N[C@@H](CC(=O)O)C(=O)N[C@@H](CC(C)(C)C)C(=O)N1)C(=O)N[C@@H](CC(=O)O)C(=O)N[C@@H](CC(=O)O)C(=O)N[C@@H](C)C(=O)N[C@@H](C)C(=O)N[C@@H](Cc1ccccc1)C(=O)N[C@@H](CC(N)=O)C(=O)N2)C(N)=O (stereo partly drawn) showed Solubility equal to 46

Item: CC(=O)N1CCC[C@]12CC=CCCCC1(CCCC=CCCCOC(=O)N3CC[C@@](C(=O)N[C@@H](Cc4ccsc4)C(=O)N[C@@H](Cc4csc5ccccc45)C(=O)N[C@@H](Cc4c[nH]cn4)C(N)=O)(C3)NC(=O)[C@H](CC(N)=O)NC(=O)[C@H](Cc3ccccc3)NC(=O)[C@H](C)NC(=O)[C@H](C)NC(=O)[C@H](CC(=O)O)NC(=O)[C@H](CC(=O)O)NC1=O)NC(=O)[C@H](CC(C)C)NC(=O)[C@H](CC(=O)O)NC2=O (stereo partly drawn) | Solubility: 40

Record summary for CC(=O)N1CCC[C@]12CC=CCCCC1(CCCC=CCCCOC(=O)N3CC[C@@](C(=O)N[C@@H](Cc4ccsc4)C(=O)N[C@@H](Cc4csc5ccccc45)C(=O)N[C@@H](CCC(N)=O)C(N)=O)(C3)NC(=O)[C@H](CC(N)=O)NC(=O)[C@H](Cc3ccccc3)NC(=O)[C@H](CCCCNC(=O)CN3CCOCC3)NC(=O)[C@H](C)NC(=O)[C@H](CC(=O)O)NC(=O)[C@H](CC(=O)O)NC1=O)NC(=O)[C@H](CC(C)(C)C)NC(=O)[C@H](CC(=O)O)NC2=O (stereo partly drawn) : reported Solubility = 43

Solubility reading for CC(=O)N1CCC[C@]12CC=CCCCC1(CCCC=CCCCOC(=O)N3CC[C@@](C(=O)N[C@@H](Cc4ccccc4Cl)C(=O)N[C@@H](Cc4csc5ccccc45)C(=O)N[C@@H](CCC(N)=O)C(N)=O)(C3)NC(=O)[C@H](CO)NC(=O)[C@H](Cc3ccc(C(F)(F)F)cc3)NC(=O)[C@H](C)NC(=O)[C@H](C)NC(=O)[C@H](CC(=O)O)NC(=O)[C@H](CC(=O)O)NC1=O)NC(=O)[C@H](CC1CCCCC1)NC(=O)[C@H](CC(=O)O)NC2=O (stereo partly drawn) : 41

Per the record, CC(=O)N1CCC[C@]12CC=CCCCC1(CCCC=CCCCCCC[C@@](C)(C(=O)N[C@@H](Cc3ccccc3Cl)C(=O)N[C@@H](Cc3csc4ccccc34)C(=O)N[C@@H](CCC(N)=O)C(N)=O)NC(=O)[C@H](CCO)NC(=O)[C@H](Cc3ccccc3)NC(=O)[C@H](C)NC(=O)[C@H](C)NC(=O)[C@H](CN(CC(=O)O)CC(F)(F)F)NC(=O)[C@H](CC(=O)O)NC1=O)NC(=O)[C@H](CC(C)(C)C)NC(=O)[C@H](CC(=O)O)NC2=O (stereo partly drawn) has Solubility of 48

Value of measured Solubility for the entry CC(=O)N1CCC[C@]12CC=CCCCC1(CCCC=CCCCCCC[C@@](C)(C(=O)N[C@@H](Cc3ccccc3)C(=O)N[C@@H](Cc3c[nH]c4ccccc34)C(=O)N[C@@H](CCC(N)=O)C(N)=O)NC(=O)[C@H](C(C)C)NC(=O)[C@H](Cc3ccsc3)NC(=O)[C@H](C)NC(=O)[C@H](C)NC(=O)[C@H](CC(=O)O)NC(=O)[C@H](CC(=O)O)NC1=O)NC(=O)[C@H](C)NC(=O)[C@H](CC(=O)O)NC2=O (stereo partly drawn) : 34

So for CC(=O)N1CCC[C@]12CC=CCCCC1(CCCC=CCCCOC(=O)N3CC[C@@](C(=O)N[C@@H](Cc4ccccc4Cl)C(=O)N[C@@H](Cc4csc5ccccc45)C(=O)N[C@@H](C(N)=O)[C@H](C)O)(C3)NC(=O)[C@H](CC(C)C)NC(=O)[C@H](Cc3ccccc3)NC(=O)[C@H](C)NC(=O)[C@H](C)NC(=O)[C@H](CC(=O)O)NC(=O)[C@H](CC(=O)O)NC1=O)NC(=O)[C@H](Cc1ccccc1)NC(=O)[C@H](CC(=O)O)NC2=O (stereo partly drawn) , the logged Solubility turned out to be 18
